Attribute: Activity
# Target Under Test: Toll-like receptor 4 (Homo sapiens) (UniProt O00206)
# Sequence (O00206 whole entry): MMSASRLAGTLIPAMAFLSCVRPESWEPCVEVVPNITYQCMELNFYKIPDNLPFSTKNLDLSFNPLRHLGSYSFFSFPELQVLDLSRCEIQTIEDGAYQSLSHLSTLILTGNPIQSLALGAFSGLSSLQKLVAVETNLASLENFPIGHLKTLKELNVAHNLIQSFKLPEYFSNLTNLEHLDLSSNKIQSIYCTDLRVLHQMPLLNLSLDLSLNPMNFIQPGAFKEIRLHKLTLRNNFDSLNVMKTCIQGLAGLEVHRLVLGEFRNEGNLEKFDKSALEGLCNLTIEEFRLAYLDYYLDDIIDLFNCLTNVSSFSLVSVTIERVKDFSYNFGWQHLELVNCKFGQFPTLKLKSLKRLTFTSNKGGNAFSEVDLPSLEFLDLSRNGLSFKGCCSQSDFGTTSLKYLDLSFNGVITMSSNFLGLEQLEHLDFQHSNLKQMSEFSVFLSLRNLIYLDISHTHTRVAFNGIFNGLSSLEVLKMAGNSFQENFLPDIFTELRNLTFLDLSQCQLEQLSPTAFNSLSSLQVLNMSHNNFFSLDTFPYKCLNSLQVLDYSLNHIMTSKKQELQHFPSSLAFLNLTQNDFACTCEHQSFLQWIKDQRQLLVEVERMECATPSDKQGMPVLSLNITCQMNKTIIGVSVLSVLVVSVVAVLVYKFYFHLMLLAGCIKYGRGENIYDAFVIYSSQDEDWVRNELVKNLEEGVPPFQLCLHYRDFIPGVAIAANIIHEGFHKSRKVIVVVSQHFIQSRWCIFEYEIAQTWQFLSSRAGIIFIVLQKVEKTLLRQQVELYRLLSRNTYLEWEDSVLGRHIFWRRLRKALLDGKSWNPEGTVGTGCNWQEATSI
# Test Protocol: Activation of TLR4 in human PBMC cells assessed as AUC of IL8 release at 10 uM after 18 hrs by ELISA relative to N-cyclohexyl-2-(4-oxo-3-phenyl-4,5-dihydro-3H-pyrimido[5,4-b]indol-2-ylthio)acetamide
# Assay type: cell-based
Metric Name: Activity (%)

| Query Smiles | Measurement Qualifier | Readout Number |
| --- | --- | --- |
| O=C(CSc1nc2c([nH]c3ccccc32)c(=O)n1C1CCCCC1)NC1CCCC1 | = | 14 |
| O=C(CSc1nc2c([nH]c3ccccc32)c(=O)n1-c1ccccc1)Nc1ccc2ccccc2c1 | < | 1 |
| CCNC(=O)CSc1nc2c([nH]c3ccccc32)c(=O)n1-c1ccccc1 | = | 4 |

----------
# Target Under Test: Toll-like receptor 4 (Mus musculus) (UniProt Q9QUK6)
# Sequence (Q9QUK6 whole entry): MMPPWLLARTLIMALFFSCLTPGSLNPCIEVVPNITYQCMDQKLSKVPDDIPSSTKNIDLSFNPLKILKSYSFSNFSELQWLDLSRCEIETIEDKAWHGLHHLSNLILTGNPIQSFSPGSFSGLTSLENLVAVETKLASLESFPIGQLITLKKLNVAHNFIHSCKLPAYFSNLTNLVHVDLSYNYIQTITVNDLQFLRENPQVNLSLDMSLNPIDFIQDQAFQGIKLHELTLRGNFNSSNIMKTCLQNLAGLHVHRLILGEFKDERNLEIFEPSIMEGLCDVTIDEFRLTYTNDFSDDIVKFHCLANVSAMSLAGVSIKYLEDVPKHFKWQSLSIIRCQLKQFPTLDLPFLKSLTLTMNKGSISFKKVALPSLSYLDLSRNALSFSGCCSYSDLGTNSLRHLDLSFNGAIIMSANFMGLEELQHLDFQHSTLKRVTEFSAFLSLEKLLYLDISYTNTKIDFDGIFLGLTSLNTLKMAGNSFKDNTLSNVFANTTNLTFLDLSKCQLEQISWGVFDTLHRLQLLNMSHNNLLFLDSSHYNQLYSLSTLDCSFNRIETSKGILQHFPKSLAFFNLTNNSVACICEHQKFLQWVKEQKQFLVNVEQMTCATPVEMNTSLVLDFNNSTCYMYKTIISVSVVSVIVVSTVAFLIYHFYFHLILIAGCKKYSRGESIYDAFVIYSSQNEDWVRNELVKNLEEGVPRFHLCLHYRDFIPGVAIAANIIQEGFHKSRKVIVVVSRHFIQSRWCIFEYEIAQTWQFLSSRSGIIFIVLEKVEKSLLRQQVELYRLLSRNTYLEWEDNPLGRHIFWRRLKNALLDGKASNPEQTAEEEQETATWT
# Test Protocol: Activation of mouse TLR4 transfected in HEK293 cells after 18 hrs by SEAP assay relative to N-cyclohexyl-2-(4-oxo-3-phenyl-4,5-dihydro-3H-pyrimido[5,4-b]indol-2-ylthio)acetamide
# Assay type: cell-based
Use TRUE when the recorded Activity is no lower than 40%; use FALSE when it is lower.

| Compound | Target Under Test | Answer Label |
| --- | --- | --- |
| CCCC(C)NC(=O)CSc1nc2c([nH]c3ccccc32)c(=O)n1-c1ccccc1 (stereo not drawn) | Toll-like receptor 4 (Mus musculus) (UniProt Q9QUK6) | FALSE |
| O=C(CSc1nc2c([nH]c3ccccc32)c(=O)n1-c1ccc2ccccc2c1)NC1CCCCC1 | Toll-like receptor 4 (Mus musculus) (UniProt Q9QUK6) | FALSE |
| NC(=O)Cn1c2ccccc2c2nc(SCC(=O)NC3CCCCC3)n(-c3ccccc3)c(=O)c21 | Toll-like receptor 4 (Mus musculus) (UniProt Q9QUK6) | FALSE |
| CC(C)(C)CCNC(=O)CSc1nc2c([nH]c3ccccc32)c(=O)n1-c1ccccc1 | Toll-like receptor 4 (Mus musculus) (UniProt Q9QUK6) | TRUE |
| O=C(CSc1nc2c([nH]c3ccccc32)c(=O)n1-c1ccccc1)NCc1ccco1 | Toll-like receptor 4 (Mus musculus) (UniProt Q9QUK6) | FALSE |
| O=C(CSc1nc2c([nH]c3ccccc32)c(=O)n1-c1ccccc1)NC1CCCCC1 | Toll-like receptor 4 (Mus musculus) (UniProt Q9QUK6) | TRUE |
| CCC(CC)NC(=O)CSc1nc2c([nH]c3ccccc32)c(=O)n1-c1ccccc1 | Toll-like receptor 4 (Mus musculus) (UniProt Q9QUK6) | FALSE |
| CC(C)CNC(=O)CSc1nc2c([nH]c3ccccc32)c(=O)n1-c1ccccc1 | Toll-like receptor 4 (Mus musculus) (UniProt Q9QUK6) | FALSE |
| O=C(CSc1nc2c([nH]c3ccccc32)c(=O)n1-c1ccccc1)Nc1ccc2ccccc2c1 | Toll-like receptor 4 (Mus musculus) (UniProt Q9QUK6) | FALSE |
| CCCCCNC(=O)CSc1nc2c([nH]c3ccccc32)c(=O)n1-c1ccccc1 | Toll-like receptor 4 (Mus musculus) (UniProt Q9QUK6) | TRUE |
| O=C(CSc1nc2c([nH]c3ccccc32)c(=O)n1C1CCCCC1)NC1CCCCC1 | Toll-like receptor 4 (Mus musculus) (UniProt Q9QUK6) | TRUE |
| O=C(CSc1nc2c([nH]c3ccccc32)c(=O)n1-c1ccccc1)Nc1ccc2cn[nH]c2c1 | Toll-like receptor 4 (Mus musculus) (UniProt Q9QUK6) | FALSE |
| Cc1cccc(NC(=O)CSc2nc3c([nH]c4ccccc43)c(=O)n2-c2ccccc2)c1 | Toll-like receptor 4 (Mus musculus) (UniProt Q9QUK6) | FALSE |
| O=C(CSc1nc2c([nH]c3ccccc32)c(=O)n1-c1ccccc1)NC1CCC1 | Toll-like receptor 4 (Mus musculus) (UniProt Q9QUK6) | FALSE |
| CCCCCCCC/C=C\CCCCCCCC(=O)OC[C@H](COP(=O)(O)OCCNC(=O)CSc1nc2c([nH]c3ccccc32)c(=O)n1-c1ccccc1)OC(=O)CCCCCCC/C=C\CCCCCCCC | Toll-like receptor 4 (Mus musculus) (UniProt Q9QUK6) | FALSE |
| O=C(CSc1nc2c([nH]c3ccccc32)c(=O)n1-c1ccccc1)Nc1ccccc1 | Toll-like receptor 4 (Mus musculus) (UniProt Q9QUK6) | FALSE |
| O=C(CSc1nc2c([nH]c3ccccc32)c(=O)n1CCc1ccccc1)NC1CCCCC1 | Toll-like receptor 4 (Mus musculus) (UniProt Q9QUK6) | FALSE |
| CN(C(=O)CSc1nc2c3ccccc3n(C)c2c(=O)n1-c1ccccc1)C1CCCCC1 | Toll-like receptor 4 (Mus musculus) (UniProt Q9QUK6) | FALSE |
| CCCCCCCCCCCCn1c2ccccc2c2nc(SCC(=O)NC3CCCCC3)n(-c3ccccc3)c(=O)c21 | Toll-like receptor 4 (Mus musculus) (UniProt Q9QUK6) | FALSE |
| O=C(CSc1nc2c([nH]c3ccccc32)c(=O)n1-c1ccccc1)Nc1ccccc1F | Toll-like receptor 4 (Mus musculus) (UniProt Q9QUK6) | TRUE |
| O=C(CSc1nc2c([nH]c3ccccc32)c(=O)n1-c1ccccc1)NC1CCCCCC1 | Toll-like receptor 4 (Mus musculus) (UniProt Q9QUK6) | TRUE |
| Cn1c2ccccc2c2nc(SCC(=O)NC3CCCCC3)n(-c3ccccc3)c(=O)c21 | Toll-like receptor 4 (Mus musculus) (UniProt Q9QUK6) | TRUE |
| CC(C)(C)NC(=O)CSc1nc2c([nH]c3ccccc32)c(=O)n1-c1ccccc1 | Toll-like receptor 4 (Mus musculus) (UniProt Q9QUK6) | FALSE |
| N#CCn1c2ccccc2c2nc(SCC(=O)NC3CCCCC3)n(-c3ccccc3)c(=O)c21 | Toll-like receptor 4 (Mus musculus) (UniProt Q9QUK6) | TRUE |
| CC(C)CCNC(=O)CSc1nc2c([nH]c3ccccc32)c(=O)n1-c1ccccc1 | Toll-like receptor 4 (Mus musculus) (UniProt Q9QUK6) | TRUE |
| O=C(CSc1nc2c([nH]c3ccccc32)c(=O)n1-c1ccccc1)NC1CCCCCCC1 | Toll-like receptor 4 (Mus musculus) (UniProt Q9QUK6) | TRUE |
| CCC(C)CCNC(=O)CSc1nc2c([nH]c3ccccc32)c(=O)n1-c1ccccc1 (stereo not drawn) | Toll-like receptor 4 (Mus musculus) (UniProt Q9QUK6) | FALSE |
| O=C(CSc1nc2c([nH]c3ccccc32)c(=O)n1-c1ccccc1)NC1CCCC1 | Toll-like receptor 4 (Mus musculus) (UniProt Q9QUK6) | FALSE |
| O=C(CSc1nc2c([nH]c3ccccc32)c(=O)n1-c1ccccc1)Nc1cccc(F)c1 | Toll-like receptor 4 (Mus musculus) (UniProt Q9QUK6) | FALSE |
| O=C(CSc1nc2c([nH]c3ccccc32)c(=O)n1-c1ccccc1)Nc1nccs1 | Toll-like receptor 4 (Mus musculus) (UniProt Q9QUK6) | FALSE |
| CCCCNC(=O)CSc1nc2c([nH]c3ccccc32)c(=O)n1-c1ccccc1 | Toll-like receptor 4 (Mus musculus) (UniProt Q9QUK6) | FALSE |
| O=C(CSc1nc2c([nH]c3ccccc32)c(=O)n1C1CCCCC1)NC1CCCC1 | Toll-like receptor 4 (Mus musculus) (UniProt Q9QUK6) | FALSE |
| O=C(CSc1nc2c3ccccc3nc-2c(O)n1-c1ccccc1)NCC1CCCO1 (stereo not drawn) | Toll-like receptor 4 (Mus musculus) (UniProt Q9QUK6) | FALSE |
| CCNC(=O)CSc1nc2c([nH]c3ccccc32)c(=O)n1-c1ccccc1 | Toll-like receptor 4 (Mus musculus) (UniProt Q9QUK6) | FALSE |
| CCCCCn1c2ccccc2c2nc(SCC(=O)NC3CCCCC3)n(-c3ccccc3)c(=O)c21 | Toll-like receptor 4 (Mus musculus) (UniProt Q9QUK6) | FALSE |
| CCCCCCNC(=O)CSc1nc2c([nH]c3ccccc32)c(=O)n1-c1ccccc1 | Toll-like receptor 4 (Mus musculus) (UniProt Q9QUK6) | FALSE |
| O=C(CSc1nc2c([nH]c3ccccc32)c(=O)n1-c1ccccc1)Nc1ccc(F)cc1 | Toll-like receptor 4 (Mus musculus) (UniProt Q9QUK6) | TRUE |
